Reference for the values: patent US8178506B2

In this section, each of the substances is paired with its reported HSL mRNA.
System: HSL
Test: HSL mRNA expression in adipocytes (real-time PCR)
Assay type: cell-based, human
Conditions: differentiating adipocytes transfected with oligomeric compound
In the oligonucleotide strings, read from the 5' end, every base follows the letter of its sugar. An asterisk marks phosphorothioate; unmarked linkages are phosphodiester. Other units and linkages are bracketed, terminal groups are in braces. A string of capitals states the bases alone. e = 2'-O-(2-methoxyethyl) (MOE); [5mC] = 5-methylcytosine; d = 2'-deoxy (DNA)

# substance, HSL mRNA
records = [
    ("328362 (eT*eG*eT*eG*eT*dT*dT*dT*d[5mC]*dT*dG*dA*d[5mC]*dT*d[5mC]*eA*eG*eT*e[5mC]*eA) [compound 328362]", "83 percentage of untreated control (UTC)"),
    ("327953 (antisense eA*eG*eA*eA*eT*eT*eG*e[5mC]*eG*eT*eT*eT*eG*eG*eA*e[5mC]*eA*eA*eT*e[5mC]*eA) [compound 327953]", "94 percentage of untreated control (UTC)"),
    ("327960 (antisense eG*eT*e[5mC]*eT*eG*eT*e[5mC]*eA*eA*eT*eT*e[5mC]*eA*eT*eA*eG*eG*eT*e[5mC]*eA*eT) [compound 327960]", "52 percentage of untreated control (UTC)"),
]

* * *

Tested on: HeLa cells
Experiment: Cell cycle assay in HeLa cells
Format: cell-based, human
Conditions: HeLa cells, 150 nM oligomeric compound, 24 hours, relative to untreated control (UTC = 100)
In the oligonucleotide strings, read from the 5' end, every base follows the letter of its sugar. An asterisk marks phosphorothioate; unmarked linkages are phosphodiester. Other units and linkages are bracketed, terminal groups are in braces. A string of capitals states the bases alone. e = 2'-O-(2-methoxyethyl) (MOE); [5mC] = 5-methylcytosine; d = 2'-deoxy (DNA)

# substance, % cells in cell cycle phase S, %
measured = [
    ("328388 (eT*e[5mC]*e[5mC]*e[5mC]*eA*dT*dA*dG*d[5mC]*dA*dG*dG*dG*d[5mC]*dA*eG*eA*eG*e[5mC]*e[5mC]; antisense) [compound 328388]", 83),
    ("328115 (antisense eA*eG*eA*eA*eG*eG*eT*eG*eG*eG*eG*eA*eG*e[5mC]*eA*eG*e[5mC]*eG*eT*e[5mC]*eA) [compound 328115]", 87),
    ("328136 (eA*eA*e[5mC]*eT*eA*e[5mC]*eT*eT*e[5mC]*e[5mC]*eA*eG*eA*eG*e[5mC]*eA*eG*eG*eT*eG*eA; anti-miR) [compound 328136]", 81),
    ("327957 (antisense e[5mC]*eA*e[5mC]*eA*eA*eG*eT*eT*e[5mC]*eG*eG*eA*eT*e[5mC]*eT*eA*e[5mC]*eG*eG*eG*eT*eT) [compound 327957]", 88),
    ("328421 (antisense eG*e[5mC]*eT*eT*eA*dG*d[5mC]*dT*dG*dT*dG*dT*d[5mC]*dT*dT*eA*e[5mC]*eA*eG*e[5mC]) [compound 328421]", 105),
]

* * *

System: HSL
Experiment: HSL mRNA expression in adipocytes (real-time PCR)
Assay type: cell-based, human
Conditions: differentiating adipocytes transfected with oligomeric compound; Table 75
In the oligonucleotide strings, read from the 5' end, every base follows the letter of its sugar. An asterisk marks phosphorothioate; unmarked linkages are phosphodiester. Other units and linkages are bracketed, terminal groups are in braces. A string of capitals states the bases alone. e = 2'-O-(2-methoxyethyl) (MOE); [5mC] = 5-methylcytosine
parameter: HSL mRNA

# substance, parameter, value
rows = [
    ("327952 (antisense e[5mC]*eT*eA*e[5mC]*eG*e[5mC]*eG*eT*eA*eT*eT*e[5mC]*eT*eT*eA*eA*eG*e[5mC]*eA*eA*eT*eA) [compound 327952]", "HSL mRNA", "64 percentage of untreated control (UTC)"),
    ("327916 (antisense eT*eG*eG*e[5mC]*eA*eT*eT*e[5mC]*eA*e[5mC]*e[5mC]*eG*e[5mC]*eG*eT*eG*e[5mC]*e[5mC]*eT*eT*eA*eA) [compound 327916]", "HSL mRNA", "64 percentage of untreated control (UTC)"),
    ("344611 (ACAUUUUUCGUUAUUGCUCUUGA; anti-miR; all 2'-MOE, all phosphorothioate, methylation of C and T or U not given here) [compound 344611]", "HSL mRNA", "31 percentage of untreated control (UTC)"),
    ("344612 (ACGGAAGGGCAGAGAGGGCCAG; anti-miR; all 2'-MOE, all phosphorothioate, methylation of C not given here) [compound 344612]", "HSL mRNA", "59 percentage of untreated control (UTC)"),
    ("341797 (antisense ACAAGUGCCUUCACUGCAGU; all 2'-MOE, all phosphorothioate, methylation of C and T or U not given here) [compound 341797]", "HSL mRNA", "29 percentage of untreated control (UTC)"),
]
